System: Liver microsome
ASSAY_EXPLANATION: Unbound intrinsic clearance in rat liver microsomes
Format: ADME
ENDPOINT_LABEL: CL free (L/h/kg)
Your answer is read as L/h/kg, so omit the unit and give the number.

Some compounds with known CL free results, for comparison:
[
  {
    "COMPOUND": "COc1cc(C)c(CNCC(NC(=O)c2cc(C)on2)c2ccccc2)cc1C (racemic)",
    "UOM": "L/h/kg",
    "MEASUREMENT": 720
  },
  {
    "COMPOUND": "COc1cc(C)c(CNCC(NC(=O)c2cc(C)on2)c2ccc(F)cc2)cc1C (configuration not stated)",
    "UOM": "L/h/kg",
    "MEASUREMENT": 580
  }
]

# input What does the data say about its CL free? Entry: COc1cc(C)c(C(=O)NCC(NC(=O)c2cc(C)on2)c2ccccc2)cc1C (configuration not stated)
# output 38

# input Looking for the measured CL free of COc1cc(C)c(CNC(=O)C(NC(=O)c2cc(C)on2)c2ccccc2)cc1C (configuration not stated) , can you help?
# output 34

# input I am curious: what CL free value has been reported for COc1cc(C)c(CNCC(NC(=O)c2cc(C3CC3)on2)c2ccccc2)cc1C (configuration not stated) ?
# output 3100

# input Report CL free for COc1cc(C)c(CNCC(NC(=O)c2cc(C)on2)c2ccccc2)cc1C(F)(F)F (configuration not stated) please.
# output 1100

# input Fill in: CL free of Cc1cc(C(=O)NC(CNCc2cc(C)c(OCC(F)(F)F)cc2C)c2ccccc2)no1 (configuration not stated) is ___
# output 600
